tested on: KRAS patient-derived spheroids with HUVEC/MSC, viability; assay: Anticancer human tumor 323965-272-R-J2-PDC patient-derived pancreatic carcinoma cell line growth inhibition [KRAS2]; details: second compound 0.316 µM; first compound 0.001 µM; stronger effect = lower value;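 further: spheroids exposed to agents for 7 days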
Could you please mark fulfilled for values of viability, T/C below 60% and not fulfilled for values at or above it?

COMPOUND	CATEGORY_LABEL
Cn1ncnc1[C@H]1c2n[nH]c(=O)c3cc(F)cc(c23)N[C@@H]1c1ccc(F)cc1 + COc1cc2nc(C)nc(NC(C)c3cc(N)cc(C(F)(F)F)c3)c2cc1OC1CCOC1	not fulfilled
CC(=O)Nc1cccc(-n2c(=O)n(C3CC3)c(=O)c3c(Nc4ccc(I)cc4F)n(C)c(=O)c(C)c32)c1 + CNCc1ccccc1-c1csc(C(C)Nc2nc(C)nc3cc(OC)c(OC)cc23)c1	not fulfilled
CN(C)C/C=C/C(=O)Nc1cc2c(Nc3ccc(F)c(Cl)c3)ncnc2cc1O[C@H]1CCOC1 + COc1cc2nc(C)nc(NC(C)c3cc(N)cc(C(F)(F)F)c3)c2cc1OC1CCOC1	not fulfilled
CC(C)n1nc(-c2ccc3oc(N)nc3c2)c2c(N)ncnc21 + C=CC(=O)N1CCN(c2nc(=O)n(-c3c(C)ccnc3C(C)C)c3nc(-c4c(O)cccc4F)c(F)cc23)C(C)C1	fulfilled
CC(=O)Nc1cccc(-n2c(=O)n(C3CC3)c(=O)c3c(Nc4ccc(I)cc4F)n(C)c(=O)c(C)c32)c1 + COc1cc2nc(C)nc(NC(C)c3cc(N)cc(C(F)(F)F)c3)c2cc1OC1CCOC1	fulfilled
CC(=O)Nc1cccc(-n2c(=O)n(C3CC3)c(=O)c3c(Nc4ccc(I)cc4F)n(C)c(=O)c(C)c32)c1 + CC1OCC2(CCN(c3cnc(Sc4ccnc(N)c4Cl)c(N)n3)CC2)C1N	fulfilled
CN(C)C/C=C/C(=O)Nc1cc2c(Nc3ccc(F)c(Cl)c3)ncnc2cc1O[C@H]1CCOC1 + C=CC(=O)N1CCN(c2nc(OCC3CCCN3C)nc3c2CCN(c2cccc4cccc(C)c24)C3)CC1CC#N	fulfilled
Cn1ncnc1[C@H]1c2n[nH]c(=O)c3cc(F)cc(c23)N[C@@H]1c1ccc(F)cc1 + CC1OCC2(CCN(c3cnc(Sc4ccnc(N)c4Cl)c(N)n3)CC2)C1N	not fulfilled
CC(=O)Nc1cccc(-n2c(=O)n(C3CC3)c(=O)c3c(Nc4ccc(I)cc4F)n(C)c(=O)c(C)c32)c1 + C=CC(=O)N1CCN(c2nc(OCC3CCCN3C)nc3c2CCN(c2cccc4cccc(C)c24)C3)CC1CC#N	fulfilled
CN(C)C/C=C/C(=O)Nc1cc2c(Nc3ccc(F)c(Cl)c3)ncnc2cc1O[C@H]1CCOC1 + CNCc1ccccc1-c1csc(C(C)Nc2nc(C)nc3cc(OC)c(OC)cc23)c1	not fulfilled
CC(=O)Nc1cccc(-n2c(=O)n(C3CC3)c(=O)c3c(Nc4ccc(I)cc4F)n(C)c(=O)c(C)c32)c1 + C=CC(=O)N1CCN(c2nc(=O)n(-c3c(C)ccnc3C(C)C)c3nc(-c4c(O)cccc4F)c(F)cc23)C(C)C1	fulfilled
CN(C)C/C=C/C(=O)Nc1cc2c(Nc3ccc(F)c(Cl)c3)ncnc2cc1O[C@H]1CCOC1 + C=CC(=O)N1CCN(c2nc(=O)n(-c3c(C)ccnc3C(C)C)c3nc(-c4c(O)cccc4F)c(F)cc23)C(C)C1	fulfilled
Cn1ncnc1[C@H]1c2n[nH]c(=O)c3cc(F)cc(c23)N[C@@H]1c1ccc(F)cc1 + C=CC(=O)N1CCN(c2nc(OCC3CCCN3C)nc3c2CCN(c2cccc4cccc(C)c24)C3)CC1CC#N	not fulfilled
CN(C)C/C=C/C(=O)Nc1cc2c(Nc3ccc(F)c(Cl)c3)ncnc2cc1O[C@H]1CCOC1 + CC1OCC2(CCN(c3cnc(Sc4ccnc(N)c4Cl)c(N)n3)CC2)C1N	fulfilled
CC(C)n1nc(-c2ccc3oc(N)nc3c2)c2c(N)ncnc21 + COc1cc2nc(C)nc(NC(C)c3cc(N)cc(C(F)(F)F)c3)c2cc1OC1CCOC1	fulfilled
